# assay.protocol: chemical genetic growth profiling, strain panel (AID 1159580);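 also: tested at 20 µM; growth read once vehicle control cultures reached saturation at 30 °C; 1 = growth at the plate median or of vehicle wells; lower values mean less growth of the strain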
# condition.description: S. cerevisiae deletion strains, growth OD, locus YMR223W, strain ubp8, hits give low values
Screen size: about 5,500 compounds; about 2,000 (36%) were called active. Another 18% or so got no clear call; they are omitted. This is one part of the list.
experimental.endpoint: normalized growth
Lab note: jot down the number only; don't add units.

Sample answers from the record:
• CN(C)c1nc(N)c(C(=O)N=C(N)N)nc1Cl = 1.02
• O=c1c(O)c(-c2cc(O)c(O)c(O)c2)oc2cc(O)cc(O)c12 = 1
• C[C@@H]1O[C@@H](OC[C@H]2OC(Oc3c(-c4ccc(OCCO)c(OCCO)c4)oc4cc(OCCO)cc(O)c4c3=O)[C@H](O)[C@@H](O)[C@@H]2O)[C@H](O)[C@H](O)[C@H]1O (some centres undefined) = 0.985
• C[C@]12CCC3c4ccc(O)cc4CCC3C1CC[C@@H]2O (some centres undefined) = 0.974
• NC(N)=NC(=O)c1nc(Cl)c(N2CCCCCC2)nc1N = 0.999
• COc1cc(OC)c2c(=O)c(O)c(-c3ccc(OC)c(OC)c3)oc2c1 = 0.759

Req: Hello, please tell me recorded normalized growth for this one: `COc1cc(OC)c2c(=O)c(OC)c(-c3ccc(OC)c(OC)c3)oc2c1`
Resp: 0.972

Req: Using the record for `COc1cc(O)c2c(=O)c(O)c(-c3ccc(O)c(O)c3)oc2c1` , state its measured normalized growth.
Resp: 1

Req: Look up and state reported normalized growth for CC1CC[C@@]2(OC1)O[C@H]1CC3C4CC[C@@H]5C[C@@H](O)CC[C@]5(C)C4CC[C@]3(C)[C@H]1[C@@H]2C (some centres undefined)
Resp: 1

* * *

Entries annotated with measured normalized growth
# assay.protocol: chemical genetic growth profiling, strain panel (AID 1159580);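 also: tested at 20 µM; growth read once vehicle control cultures reached saturation at 30 °C; 1 = growth at the plate median or of vehicle wells; lower values mean less growth of the strain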
# condition.description: S. cerevisiae deletion strains, growth OD, locus YCL016C, strain dcc1, hits give low values
Screen size: about 5,500 compounds; about 2,000 (36%) were called active. Roughly 18% stayed inconclusive and do not appear here. This is one part of the list.
// print number alone

- O=C(OC1Cc2c(O)cc(O)cc2OC1c1cc(=O)c(O)c2c(O)c(O)cc(C3Oc4cc(O)cc(O)c4CC3O)c2c1)c1cc(O)c(O)c(O)c1 (stereo not drawn): 0.976

Req: Specify normalized growth for CN[C@@H]1[C@@H](O)C(OC2[C@@H](N)C[C@@H](N)[C@H](O[C@H]3O[C@H](C(C)O)[C@@H](O)[C@H](O)[C@H]3N)[C@H]2O)OC[C@]1(C)O (stereo partly drawn) and stop.
Resp: 0.976

Req: Report measured normalized growth; entry is `O=C(O[C@@H]1Cc2c(O)cc(O)cc2O[C@@H]1c1cc(O)c(=O)c2c(O)c(O)cc([C@H]3Oc4cc(O)cc(O)c4C[C@H]3O)c2c1)c1cc(O)c(O)c(O)c1`
Resp: 0.765

* * *

# assay.protocol: chemical genetic growth profiling, strain panel (AID 1159580);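 also: tested at 20 µM; growth read once vehicle control cultures reached saturation at 30 °C; 1 = growth at the plate median or of vehicle wells; lower values mean less growth of the strain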
# condition.description: S. cerevisiae deletion strains, growth OD, locus YJL095W, strain BCK1 (second series), hits give low values
Hit rate of the full screen: of about 5,500 compounds, about 2,000 (36%) were called active. About 18% were inconclusive and are not listed. The list shows a part of the results.
experimental.endpoint: normalized growth
Output: the number by itself.

Solved cases below.
- Oc1cc2c(cc1O)C1c3ccc(O)c(O)c3OCC1(O)C2 (configuration not stated): 1.01
- CCCCCCCCCCCC1=C(O)C(=O)C=C(O)C1=O: 0.88
- Oc1ccc2c(c1)OCC1(O)Cc3cc(O)c(O)cc3C21 (configuration not stated): 1.02
- CC(=O)OCC1=C(C(=O)O)N2C(=O)[C@@H](NC(=O)Cc3cccs3)[C@H]2SC1: 1
- C[C@]12CCC3c4ccc(O)cc4CCC3C1CC[C@@H]2O (some centres not stated): 0.997
- CC(=O)Oc1ccc2c(c1OC(C)=O)OCC1(O)Cc3c(cc(OC(C)=O)c(OC(C)=O)c3OC(C)=O)C21 (configuration not stated): 1

Req: Identify measured normalized growth corresponding to NS(=O)(=O)c1cc(C2(O)NC(=O)c3ccccc32)ccc1Cl (configuration not stated)
Resp: 0.997

Where these numbers come from: PubChem BioAssay AID1159580
